molecular target: Gal4-RORγ-LBD (Homo sapiens); construct: expressed in transfected cells; test: Gal4-RORγ Luciferase Reporter Assay in HEK-293T Cells; type: cell-based; details: HEK-293 cells, luciferase reporter, with ursolic acid
Sequence (P51449 269-508 limits assumed): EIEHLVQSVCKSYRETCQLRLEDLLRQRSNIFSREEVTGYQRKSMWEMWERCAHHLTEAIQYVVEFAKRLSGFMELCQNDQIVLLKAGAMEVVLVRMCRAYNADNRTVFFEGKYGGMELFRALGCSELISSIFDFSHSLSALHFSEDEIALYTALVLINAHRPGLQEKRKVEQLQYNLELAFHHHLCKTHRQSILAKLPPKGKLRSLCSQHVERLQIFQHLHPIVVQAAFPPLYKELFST
pEC50: −log10 of the molar value.
quantity: pEC50

Tell me measured pEC50 for C/C(=C\c1ccc2c(c1)N(S(=O)(=O)c1c(Cl)nc3sccn13)C[C@H](CCC(=O)O)O2)c1c(F)cccc1Cl [Example 86U] please. 5.30 to 6.30

Tell me measured pEC50 for N#Cc1ccccc1/C=C/c1ccc2c(c1)N(S(=O)(=O)c1cccc(OC(F)F)c1)C[C@H](CCC(=O)O)O2 [Example 89AQ] please. 5.30 to 6.30

Tell me measured pEC50 for `COC(=O)CC[C@H]1CN(S(=O)(=O)c2cccc(C(F)(F)F)c2)c2cc(/C=C(\C)c3c(F)cccc3Cl)c(C)cc2O1` please. > 6.30

Tell me measured pEC50 for O=S(=O)(c1cccc(C(F)(F)F)c1)N1CCCc2cc(OCc3c(F)cccc3Cl)ccc21 [Example 25J] please. 5.30 to 6.30

Tell me measured pEC50 for `C/C(=C\c1cc2c(cc1C)O[C@@H](CCC(=O)O)CN2S(=O)(=O)c1cccc(OC(F)F)c1)c1c(F)cccc1Cl` please. 5.30 to 6.30

---
Tell me measured pEC50 for CCn1cc(S(=O)(=O)N2C[C@H](CCC(=O)O)Oc3ccc(/C=C(\C)c4c(F)cccc4Cl)cc32)c(Cl)n1 [Example 86G] please. 5.30 to 6.30

Tell me measured pEC50 for COC(=O)CC[C@H]1CN(S(=O)(=O)c2cccc(OC)c2)c2cc(/C=C(\C)c3c(F)cccc3Cl)ccc2O1 [Example 86N] please. > 6.30

Tell me measured pEC50 for CCOc1nn(CC)cc1S(=O)(=O)N1C[C@H](CCC(=O)OC)Oc2ccc(/C=C/c3ccsc3)cc21 [Example 89L] please. 5.30 to 6.30

Tell me measured pEC50 for `COC(=O)CC[C@H]1CN(S(=O)(=O)c2cc(C(F)(F)F)cnc2OC[C@@H](C)O)c2cc(/C=C/c3c(F)cccc3Cl)ccc2O1` please. 5.30 to 6.30

Tell me measured pEC50 for CCOc1ncc(C(F)(F)F)cc1S(=O)(=O)N1C[C@H](CCC(=O)OC)Oc2ccc(/C=C/c3c(Cl)cccc3C(C)(F)F)cc21 [Example 89FH] please. > 6.30

Tell me measured pEC50 for Cc1cccc2c1c(/C=C/c1ccc3c(c1)N(S(=O)(=O)c1cccc(C(F)(F)F)c1)C[C@H](CCC(=O)O)O3)nn2C [Example 89BN] please. 5.30 to 6.30

Tell me measured pEC50 for COC(=O)CC[C@H]1CN(S(=O)(=O)c2cc(C(F)(F)F)cnc2OC[C@H](C)O)c2cc(/C=C/c3c(F)cccc3Cl)ccc2O1 [Example 89FN] please. 5.30 to 6.30

Tell me measured pEC50 for CC1CCCC/C1=C\c1ccc2c(c1)N(S(=O)(=O)c1cc(C(F)(F)F)cnc1OCCO)C[C@H](CCC(=O)O)O2 (stereo partly shown) [Example 95R] please. > 6.30

Hey, just so you know, these numbers are from patent US9896441B2.
